Quick reference for Emax among some compounds
target: human M4 receptor (Homo sapiens (Human), UniProt P08173); assay: In vitro M4 functional assay (intracellular calcium, FLiPR Tetra); assay type: cell-based; conditions: relative efficacy to an EC100 concentration of acetylcholine; read-out: M4 % RE
Sequence (P08173 whole entry): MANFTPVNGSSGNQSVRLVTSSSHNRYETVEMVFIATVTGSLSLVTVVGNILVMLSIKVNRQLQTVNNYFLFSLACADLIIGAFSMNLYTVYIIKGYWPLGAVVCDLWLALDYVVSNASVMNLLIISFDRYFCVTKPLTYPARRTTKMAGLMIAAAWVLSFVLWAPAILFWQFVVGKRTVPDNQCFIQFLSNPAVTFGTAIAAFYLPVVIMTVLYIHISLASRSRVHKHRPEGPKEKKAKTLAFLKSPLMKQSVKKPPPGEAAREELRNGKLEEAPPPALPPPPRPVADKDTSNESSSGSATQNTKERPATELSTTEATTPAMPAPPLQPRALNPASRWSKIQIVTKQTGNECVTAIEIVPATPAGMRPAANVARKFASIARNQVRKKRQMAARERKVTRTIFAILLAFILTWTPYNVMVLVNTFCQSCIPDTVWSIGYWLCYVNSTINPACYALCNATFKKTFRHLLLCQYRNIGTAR

- Compound: "CCOC(=O)N1CCCC(N2CCC(n3nccc3-c3ccnn3C)CC2)CC1 (centres unmarked) [Example 7]"
  Emax, %: 75
- Compound: "CCOC(=O)N1CCCC(N2CCC(c3cccnc3C3CC3)CC2)CC1 (centres unmarked) [Example 66]"
  Emax, %: 84
- Compound: "CCOC(=O)N1CCCC(N2CCC(c3cc(C)cnc3OCC)CC2)CC1 (centres unmarked) [Example 42]"
  Emax, %: 82
- Compound: "CCOC(=O)N1CCC[C@H](N2CCC(c3nccn3C)CC2)CC1 [Example 83]"
  Emax, %: 55
- Compound: "CCOC(=O)N1CCCC(N2CCC(c3cccnc3-c3cnn(C)c3)CC2)CC1 (centres unmarked) [Example 73]"
  Emax, %: 53
- Compound: "CCOC(=O)N1CCCC(N2CCC(c3nc(C(F)(F)F)ncc3OC)CC2)CC1 (centres unmarked) [Example 60]"
  Emax, %: 68
- Compound: "CCOC(=O)N1CCCC(N2CCC(n3cc(-c4ccc(Cl)cc4)cn3)CC2)CC1 (centres unmarked) [Example 8]"
  Emax, %: 59
- Compound: "CCOC(=O)N1CCCC(N2CCC(n3cc(-c4ccc(F)cc4)cn3)CC2)CC1 (centres unmarked) [Example 18]"
  Emax, %: 45
- Compound: "CCOC(=O)N1CCCC(N2CCC(c3cccnc3C)CC2)CC1 (centres unmarked) [Example 41]"
  Emax, %: 54
- Compound: "CCOC(=O)N1CCCC(N2CCC(c3cc(-c4cccs4)n[nH]3)CC2)CC1 (centres unmarked) [Example 17]"
  Emax, %: 50
- Compound: "CCOC(=O)N1CCC(N2CCC(c3cccnc3C)CC2)CC1 [Example 46]"
  Emax, %: 31
- Compound: "CCOC(=O)N1CCCC(N2CCC(c3nccnc3OC)CC2)CC1 (centres unmarked) [Example 40]"
  Emax, %: 62
- Compound: "CCOC(=O)N1CCC(N2CCC(c3cc(C)cnc3OCC)CC2)CC1 [Example 47]"
  Emax, %: 72
- Compound: "CCOC(=O)N1CCC(CN2CCC(n3nc(C)cc3C)C2)CC1 (centres unmarked) [Example 79]"
  Emax, %: 50
- Compound: "CCOC(=O)N1CCCC(N2CCC(c3cccn(C)c3=O)CC2)CC1 (centres unmarked) [Example 39]"
  Emax, %: 41
- Compound: "CCOC(=O)N1CCCC(N2CCC(c3cnccc3OC)CC2)CC1 (centres unmarked) [Example 48]"
  Emax, %: 63
- Compound: "CCOC(=O)N1CCCC(N2CCC(n3cccn3)CC2)CC1 (centres unmarked) [Example 4]"
  Emax, %: 74
- Compound: "CCOC(=O)N1CCCC(N2CCC(c3cccn(CC)c3=O)CC2)CC1 (centres unmarked) [Example 57]"
  Emax, %: 37
- Compound: "CCOC(=O)N1CCCC(N2CCC(c3cccnc3CC(C)C)CC2)CC1 (centres unmarked) [Example 77]"
  Emax, %: 58
- Compound: "CCOC(=O)N1CCCC(N2CCC(c3ncccc3OC)CC2)CC1 (centres unmarked) [Example 38]"
  Emax, %: 92
- Compound: "CCOC(=O)N1CCCC(N2CCC(OC)(c3nccn3C)CC2)CC1 (centres unmarked) [Example 13]"
  Emax, %: 24
- Compound: "CCOC(=O)N1CCCC(N2CCC(c3cccnc3-c3cnn(C(C)C)c3)CC2)CC1 (centres unmarked) [Example 61]"
  Emax, %: 66
- Compound: "CCOC(=O)N1CCCC(N2CCC(n3nccc3COC)CC2)CC1 (centres unmarked) [Example 23]"
  Emax, %: 67
- Compound: "CCOC(=O)N1CCCC(N2CCC(c3nccs3)CC2)CC1 (centres unmarked) [Example 26]"
  Emax, %: 51
- Compound: "CCOC(=O)N1CCCC(N2CCC(c3cccnc3OC(C)C)CC2)CC1 (centres unmarked) [Example 55]"
  Emax, %: 67
- Compound: "CCOC(=O)N1CCCC(N2CCC(c3nccnc3N(C)C)CC2)CC1 (centres unmarked) [Example 49]"
  Emax, %: 53
- Compound: "CCOC(=O)N1CCCC(N2CCC(c3ccnn3C)CC2)CC1 (centres unmarked) [Example 14]"
  Emax, %: 55
- Compound: "CCOC(=O)N1CCCC(N2CCC(c3ncccn3)CC2)CC1 (centres unmarked) [Example 74]"
  Emax, %: 61
- Compound: "CCOC(=O)N1CCC(N2CCC(c3ccnc(C)n3)CC2)CC1 [Example 36]"
  Emax, %: 25
- Compound: "CCOC(=O)N1CCCC(N2CCC(c3nc(C)cnc3C)CC2)CC1 (centres unmarked) [Example 59]"
  Emax, %: 30
- Compound: "CCOC(=O)N1CCCC(N2CCC(c3cccnc3OCc3cc(C)no3)CC2)CC1 (centres unmarked) [Example 54]"
  Emax, %: 94
- Compound: "CCOC(=O)N1CCC(N2CCC(c3cccnc3OC)CC2)CC1 [Example 34]"
  Emax, %: 90
- Compound: "CCOC(=O)N1CCC(N2CCC(c3nc(OC)cc(OC)n3)CC2)CC1 [Example 37]"
  Emax, %: 39
- Compound: "CCOC(=O)N1CCC[C@@H](N2CCC(c3cccnc3OC)CC2)CC1 [Example 86]"
  Emax, %: 67
- Compound: "CCOC(=O)N1CCCC(N2CCC(c3cc[nH]n3)CC2)CC1 (centres unmarked) [Example 6]"
  Emax, %: 53
- Compound: "CCOC(=O)N1CCC(N2CCC(c3cccc(OCC)n3)CC2)CC1 [Example 72]"
  Emax, %: 63
- Compound: "CCOC(=O)N1CCCC(N2CCC(c3ccncc3OC)CC2)CC1 (centres unmarked) [Example 44]"
  Emax, %: 52
- Compound: "CCOC(=O)N1CCCC(N2CCC(c3nccn3CC)CC2)CC1 (centres unmarked) [Example 10]"
  Emax, %: 44

Data credit: patent US10030012B2
